// data source = PubChem BioAssay AID1845207

System: NCI-H1876 tumor spheroid viability
Assay: Anticancer human tumor NCI-H1876 cell line growth inhibition;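 note: spheroids exposed to compounds for seven days before the viability read; percent of DMSO vehicle control viability so 100% = vehicle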
Settings: second compound 10 µM; first compound 1 µM; hits give low values; spheroids with HUVEC and MSC
Entries and their viability, T/C
Field: numeric (%). Do not append units.

Recorded viability, T/C, per entry:
>  <Molecule>
COc1cc(C)[nH]c(=O)c1CN1CCc2c(Cl)cc(C(OC)C3COC3)c(Cl)c2C1=O (stereo unspecified) + Cn1nnc2c(C(N)=O)ncn2c1=O

>  <viability, T/C / %>
100

$$$$
>  <Molecule>
CC(C)n1c(=O)n(C)c2cnc3cc(F)c(-c4ccc(OCCCN5CCCCC5)nc4)cc3c21 + Cn1nnc2c(C(N)=O)ncn2c1=O

>  <viability, T/C / %>
41.6

$$$$
>  <Molecule>
COc1ccc([C@@H](O)c2cc(-c3ncnc4cc(N5CCOCC5)ccc34)c(F)cc2Cl)nn1 + Cn1nnc2c(C(N)=O)ncn2c1=O

>  <viability, T/C / %>
51

$$$$

May I ask what viability, T/C has been recorded for [2H]c1nc(C)nc([2H])c1-c1cc(NC[C@@H](C)c2cccc3c(C(=O)NC)ccnc23)ncn1 + Cn1nnc2c(C(N)=O)ncn2c1=O ?
101

Please answer likewise for Cc1cc(C)c(CNC(=O)c2cc(-c3ccc(CN4CCOCC4)cc3)cc3c2cnn3C2CCCC2)c(=O)[nH]1 + Cn1nnc2c(C(N)=O)ncn2c1=O
46.8

Thanks! And CC1COCCN1c1cc(-c2ccnn2C)c2ccnc(-c3ccn[nH]3)c2n1 (stereo unspecified) + Cn1nnc2c(C(N)=O)ncn2c1=O ?
20
